- System: SF-268
- Test Summary: NCI tumour cell line growth inhibition, 48 h
The source made the active and inactive calls. Cut-off read from the data, not from the text of the source: active = GI50 up to about 1.1 µM and inactive = higher.
Allowed answers: class 1 for active, class 0 for inactive

O=C(NC(CO)Cc1ccc(Oc2cc(CC(CO)NC(=O)OCc3ccccc3)ccc2OC(=O)OCc2ccccc2)cc1)OCc1ccccc1 (stereo not drawn)	class 0

Outcome logged for Cc1ccc(C2SCC(=O)N2c2ccc(-c3ccc(-n4c(-c5ccccc5)nc5ccccc5c4=O)cc3)cc2)cc1 (stereo not drawn) in this assay:
class 0

Outcome logged for "c1ccc(NC2(c3nnnn3C3CCCCC3)CCNCC2)cc1" in this assay:
class 0

Outcome logged for "Cc1nn(C)c(=S)n(C)c1=O" in this assay:
class 1

Outcome logged for "O=c1[nH]nc(Cn2c3ccc(Br)cc3c3nc4ccccc4nc32)n1C1CCCCC1" in this assay:
class 0

Outcome logged for "Nc1nnc(CCC(=O)Nc2cc(Cl)ccc2Cl)n1N" in this assay:
class 0

Outcome logged for O=C(O)C12C3C4C1C1C2C3C1(Br)C41OCCO1 (stereo not drawn) in this assay:
class 0

Outcome logged for C[N+]1(CCC(=O)c2ccccc2)CCC2CCC(C2)C1 (stereo not drawn) in this assay:
class 0

Outcome logged for "NCCCCNc1ccc2c(=O)[nH][nH]c(=O)c2c1" in this assay:
class 0

Outcome logged for C[C@]12Cc3conc3C(O)=C1CC[C@@H]1C2CC[C@@]2(C)C1CC[C@@H]2O (stereo partly drawn) in this assay:
class 0

Outcome logged for NC1=NCN(C2OC(CO)C(O)C2O)C(=O)N1 (stereo not drawn) in this assay:
class 0

Reference for the values: ChEMBL document CHEMBL1201862
